Reference for the values: patent US7144881B2

# Measurement Target: voltage-gated K+ channel KCNQ2 (Homo sapiens)
# Experimental Protocol: Thallium flux assay for openers of KCNQ potassium channels
# Reported Conditions: 10 point concentration series, 50% of the maximal response
pEC50: −log10 of the molar value.
Quantity Measured: pEC50

Example entries and their recorded answers appear below.
Compound	Quantity Measured	Reading
O=C(N[C@@H](CO)c1ccc2ccccc2c1)C1CC1c1ccccc1 (stereo partly shown)	pEC50	9.00
O=C(N[C@@H](CO)c1ccc2ccccc2c1)C1CC1c1ccccc1Cl (stereo partly shown)	pEC50	7.66
C[C@H](NC(=O)[C@@H]1C[C@H]1c1ccccc1)c1cccc(-c2cccnc2)c1	pEC50	9.00
C[C@H](NC(=O)C1CC1c1cccc(F)c1)c1cccc(-c2ccc(Cl)nc2)c1 (stereo partly shown)	pEC50	5.66

I: O=C(N[C@@H](CO)c1ccc2ccccc2c1)C1CC1c1cc(F)ccc1F (stereo partly shown)
II: O=C(N[C@@H](CO)c1ccc2ccccc2c1)C1CC1c1ccc(F)cc1 (stereo partly shown)
III: O=C(N[C@@H](CO)c1ccc2ccccc2c1)C1CC1c1ccccc1F (stereo partly shown)
Q. Task for the reader: rank each entry by its pEC50, from the minimum upward. Please respond with the labels ordered as the question requires.
A. III, II, I
(III: 5.84, II: 7.92, I: 9.00)

###

# Measurement Target: mKCNQ2 channels (Mus musculus, UniProt Q9Z351)
# Construct: expressed in transfected cells
# Experimental Protocol: Whole-cell patch-clamp recordings of mKCNQ2 currents
# Assay type: cell-based
# Reported Conditions: HEK 293 stable cell line expressing mKCNQ2; @ −40 mV; room temperature
Quantity Measured: EC50 (µM)
# number only, unit µM dropped from output

Q. Entry O=C(N[C@@H](CO)c1ccc2ccccc2c1)C1CC1c1ccc(F)cc1 (stereo partly shown) [Example 13] has what EC50?
A. 0.597
